Entry source: patent US4882349A

tested on: carrageenin-induced oedema; assay: carrageenin-induced oedema test (anti-inflammatory activity); assay type: in vivo, albino male Wistar rats; details: 25 mg/Kg, Table IV (route not given), 4 h
Mark Not fulfilled for oedema % inhibition values under 40%, and Fulfilled for everything at or above.

Challenge: Decide: is the reported value of oedema % inhibition for "CCOC(=O)c1ccc(NC(=O)Cc2ccc(C(=O)c3ccc(C)cc3)n2C)cc1" equal to or greater than 40%?
Response given: Not fulfilled

Challenge: # repeat for "Cc1ccc(C(=O)c2ccc(CC(=O)N3CCOCC3)n2C)cc1"
Response given: Not fulfilled

Challenge: Continue with "Cc1ccc(C(=O)c2ccc(CC(=O)N3CCN(C)CC3)n2C)cc1"
Response given: Not fulfilled

Challenge: And the next one, "Cc1ccc(C(=O)c2ccc(CC(=O)NCC(=O)O)n2C)cc1" ?
Response given: Fulfilled

Challenge: Query "Cc1ccc(C(=O)c2ccc(CC(=O)NNCC(=O)N3CCN(C)CC3)n2C)cc1" next
Response given: Not fulfilled
